# Tested on: FtsZ (recombinant E. coli FtsZ) (Escherichia coli, UniProt P0A9A6)
# Construct: made in house; host or cells: E. coli BL21
# Sequence (P0A9A6 whole entry): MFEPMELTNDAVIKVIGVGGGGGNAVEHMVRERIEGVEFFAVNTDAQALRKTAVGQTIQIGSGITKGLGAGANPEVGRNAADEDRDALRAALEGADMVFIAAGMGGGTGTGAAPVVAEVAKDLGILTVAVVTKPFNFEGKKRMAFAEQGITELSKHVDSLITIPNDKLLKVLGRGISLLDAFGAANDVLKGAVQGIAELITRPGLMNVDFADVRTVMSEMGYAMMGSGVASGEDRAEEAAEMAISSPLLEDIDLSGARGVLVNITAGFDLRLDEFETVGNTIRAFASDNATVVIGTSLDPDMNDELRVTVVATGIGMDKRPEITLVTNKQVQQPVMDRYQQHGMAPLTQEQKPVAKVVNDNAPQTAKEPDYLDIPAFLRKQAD
# Method: Fluorescence binding experiment (spectrofluorimetric titration)
# Details: FtsZ 12 μM, peptide 1 to 180 μM, 20 °C, excitation 280 nm, emission 347 nm, one site-specific binding fit, in duplicate; read-out: Kd of FtsZ-peptide complex
Ends that are not written are not given here.
Parameter: pKd
Please report pKd as the negative decimal logarithm of the molar concentration, giving only the number.

Which pKd value belongs to FVKWFKKFLTRILF [TRILF] ?
5.37
